Target: Serine/threonine-protein kinase MARK1 (Homo sapiens) (UniProt Q9P0L2)
Sequence (Q9P0L2 whole entry, looked up): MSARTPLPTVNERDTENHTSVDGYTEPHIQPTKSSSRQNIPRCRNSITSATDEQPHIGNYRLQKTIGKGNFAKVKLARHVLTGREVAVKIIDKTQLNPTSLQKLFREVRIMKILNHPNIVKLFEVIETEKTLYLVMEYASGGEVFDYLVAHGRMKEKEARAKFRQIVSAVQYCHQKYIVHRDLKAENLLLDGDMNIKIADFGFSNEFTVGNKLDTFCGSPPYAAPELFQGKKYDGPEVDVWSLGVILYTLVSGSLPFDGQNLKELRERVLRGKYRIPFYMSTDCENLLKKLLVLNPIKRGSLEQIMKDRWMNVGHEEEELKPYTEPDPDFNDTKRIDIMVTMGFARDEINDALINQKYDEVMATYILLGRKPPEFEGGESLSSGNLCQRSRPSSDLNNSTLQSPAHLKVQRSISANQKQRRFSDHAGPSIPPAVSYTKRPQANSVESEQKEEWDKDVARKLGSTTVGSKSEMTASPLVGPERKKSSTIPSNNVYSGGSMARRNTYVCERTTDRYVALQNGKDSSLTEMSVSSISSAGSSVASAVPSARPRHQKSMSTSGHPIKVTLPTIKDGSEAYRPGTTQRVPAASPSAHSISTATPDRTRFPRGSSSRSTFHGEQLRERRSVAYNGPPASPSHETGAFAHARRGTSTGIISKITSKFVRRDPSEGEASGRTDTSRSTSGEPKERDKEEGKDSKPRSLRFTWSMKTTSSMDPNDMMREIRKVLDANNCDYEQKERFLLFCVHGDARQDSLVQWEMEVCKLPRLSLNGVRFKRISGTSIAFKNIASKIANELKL
Conditions: at 1 µM
Hi there, I'd appreciate the recorded residual activity for every entry that follows.
Give just the number in %; leave the unit off.

[in] Look up Serine/threonine-protein kinase MARK1 (Homo sapiens) (UniProt Q9P0L2) data: residual activity of `CCC(=O)Nc1ccc2ncnc(Nc3cccc(Br)c3)c2c1` , then report it.
[out] 84

[in] Look up Serine/threonine-protein kinase MARK1 (Homo sapiens) (UniProt Q9P0L2) data: residual activity of `COc1cc2ncnc(N3CCN(C(=O)Nc4ccc(Oc5ccccc5)cc4)CC3)c2cc1OC` , then report it.
[out] 86

[in] Look up Serine/threonine-protein kinase MARK1 (Homo sapiens) (UniProt Q9P0L2) data: residual activity of `CO[C@H]1C[C@@H]2CC[C@@H](C)[C@@](O)(O2)C(=O)C(=O)N2CCCC[C@H]2C(=O)O[C@H]([C@H](C)C[C@@H]2CC[C@@H](O)[C@H](OC)C2)CC(=O)[C@H](C)/C=C(\C)[C@@H](O)[C@@H](OC)C(=O)[C@H](C)C[C@H](C)/C=C/C=C/C=C/1C` , then report it.
[out] 78

[in] Look up Serine/threonine-protein kinase MARK1 (Homo sapiens) (UniProt Q9P0L2) data: residual activity of `c1ccc2c(-c3ccncc3)c[nH]c2c1` , then report it.
[out] 81

---

Target: TGF-beta receptor type-1 (Homo sapiens)
Sequence (whole entry): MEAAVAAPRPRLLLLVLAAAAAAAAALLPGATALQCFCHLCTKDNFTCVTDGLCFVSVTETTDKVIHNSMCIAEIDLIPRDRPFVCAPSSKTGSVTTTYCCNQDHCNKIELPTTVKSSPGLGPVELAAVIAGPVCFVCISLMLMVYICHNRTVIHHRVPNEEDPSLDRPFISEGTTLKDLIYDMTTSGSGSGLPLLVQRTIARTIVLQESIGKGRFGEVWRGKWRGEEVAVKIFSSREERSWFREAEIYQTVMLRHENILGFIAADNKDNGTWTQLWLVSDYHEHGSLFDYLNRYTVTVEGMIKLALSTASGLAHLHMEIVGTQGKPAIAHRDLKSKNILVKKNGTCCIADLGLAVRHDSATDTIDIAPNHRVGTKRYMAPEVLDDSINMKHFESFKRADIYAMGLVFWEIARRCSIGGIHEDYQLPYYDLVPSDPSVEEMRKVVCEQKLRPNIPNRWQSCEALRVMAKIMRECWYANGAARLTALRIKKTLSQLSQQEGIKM
Details: at 1 µM
Description: Millipore: Percentage of residual kinase activity of TGFBR1 at 1uM relative to control. Control inhibitor: Phosphoric acid* at 0.3uM. Buffer: 8 mM MOPS pH 7.0, 0.2 mM EDTA, 1 mM MnCl2
Hi there, I'd appreciate the recorded residual activity for every entry that follows.
Give just the number in %; leave the unit off.

[in] State its residual activity: `CC[n+]1c(/C=C/N(C)c2ccccc2)n(-c2ccccc2)c2ccc(-c3nc4ccccc4s3)cc21`
[out] 80

[in] State its residual activity: `C[C@@H](N)[C@H]1CC[C@H](C(=O)Nc2ccncc2)CC1`
[out] 113

[in] State its residual activity: `Nc1nc(Nc2ccc(S(N)(=O)=O)cc2)nn1C(=S)Nc1c(F)cccc1F`
[out] 13

[in] State its residual activity: `O=C1NC(=O)/C(=C/c2ccc3c(c2)OC(F)(F)O3)S1`
[out] 95

[in] State its residual activity: `CC(=O)O/N=C1\C(=C2\C(=O)Nc3cc(Br)ccc32)Nc2ccccc21`
[out] 91

[in] State its residual activity: `CCN(CC)C(=O)c1ccc(Nc2nc(OCC3CCCCC3)c3nc[nH]c3n2)cc1`
[out] 82

[in] State its residual activity: `O=[N+]([O-])c1ccc(-c2nc(-c3ccc(F)cc3)c(-c3ccncc3)[nH]2)cc1`
[out] 61

[in] State its residual activity: `CC(C)n1cnc2c(NCc3ccccc3)nc(NCCCO)nc21`
[out] 93

[in] State its residual activity: `Cc1cc2ncc(-c3ccccc3)nc2cc1C`
[out] 100

[in] State its residual activity: `c1ccc(-c2n[nH]cc2-c2ccnc3ccccc23)nc1`
[out] 6

---

Molecular target: Vascular endothelial growth factor receptor 3 (Homo sapiens)
Conditions: at 1 µM
Please assign condition not met whenever residual activity is at or above 60%, and condition met whenever it is below.

[in] Does the reported residual activity of the following compound sit strictly below 60%? `Nc1cccc(-c2cc3c(Oc4cccc(O)c4)ncnc3[nH]2)c1`
[out] condition met

[in] Does the reported residual activity of the following compound sit strictly below 60%? `Cc1cc2ncc(-c3ccccc3)nc2cc1C`
[out] condition met

[in] Does the reported residual activity of the following compound sit strictly below 60%? `Cn1nc2c3c(cccc31)C(=O)c1ccccc1-2`
[out] condition met

[in] Does the reported residual activity of the following compound sit strictly below 60%? `Oc1c2ccccc2c2c3c(cccc13)N=N2`
[out] condition met

[in] Does the reported residual activity of the following compound sit strictly below 60%? `Cc1ccc(NC2=CC(=O)c3sc(C)nc3C2=O)cc1`
[out] condition not met

[in] Does the reported residual activity of the following compound sit strictly below 60%? `c1ccc2c(-c3ccncc3)c[nH]c2c1`
[out] condition not met

[in] Does the reported residual activity of the following compound sit strictly below 60%? `Cn1cc(/C=C2\C(=O)Nc3ccc(S(N)(=O)=O)cc32)c2ccccc21`
[out] condition met

---

Target: Aurora kinase B (Homo sapiens) (UniProt Q96GD4)
Sequence (Q96GD4 whole entry): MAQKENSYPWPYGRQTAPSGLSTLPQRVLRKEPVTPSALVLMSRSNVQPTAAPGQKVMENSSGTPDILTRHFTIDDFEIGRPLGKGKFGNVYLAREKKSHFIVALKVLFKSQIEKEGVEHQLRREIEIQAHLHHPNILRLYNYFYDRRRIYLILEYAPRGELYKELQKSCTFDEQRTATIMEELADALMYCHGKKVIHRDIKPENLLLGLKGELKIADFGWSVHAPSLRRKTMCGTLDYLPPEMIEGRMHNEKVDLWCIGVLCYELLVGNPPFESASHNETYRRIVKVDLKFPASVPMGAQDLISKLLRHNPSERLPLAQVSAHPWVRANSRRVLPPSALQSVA
Details: at 10 µM
Hi there, I'd appreciate the recorded residual activity for every entry that follows.
Give just the number in %; leave the unit off.

[in] State its residual activity: `O=C1Nc2ccc(Br)cc2/C1=C\c1cc2c([nH]1)CCCC2`
[out] 8

[in] State its residual activity: `CO[C@H]1[C@@H](OC)C[C@H](C)[C@@H](OC)C2=CC(=O)C=C(NC(=O)/C(C)=C/C=C/[C@H](OC)[C@@H](OC(N)=O)/C(C)=C/[C@@H]1C)C2=O`
[out] 68

[in] State its residual activity: `Cc1cc(Nc2nc(-c3ccccc3)nc3ccccc23)n[nH]1`
[out] 0

[in] State its residual activity: `COc1cc2ncnc(Nc3ccc(Oc4ccccc4)cc3)c2cc1OC`
[out] 9

[in] State its residual activity: `Cc1ccc(NC2=CC(=O)c3sc(C)nc3C2=O)cc1`
[out] 68

[in] State its residual activity: `O=C(Nc1cccc(Nc2nccc(Nc3cccc(C(F)(F)F)c3)n2)c1)C1CC1`
[out] 2

[in] State its residual activity: `Cc1nc2cc3nc(-c4cccs4)cnc3cc2n1C`
[out] 16

[in] State its residual activity: `Nc1cccc(-c2cc3c(Oc4cccc(O)c4)ncnc3[nH]2)c1`
[out] 0

[in] State its residual activity: `CC[n+]1c(/C=C/N(C)c2ccccc2)n(-c2ccccc2)c2ccc(-c3nc4ccccc4s3)cc21`
[out] 91

[in] State its residual activity: `Oc1ccc(Nc2nc(-c3ccc(Cl)cc3)cs2)cc1`
[out] 71

---

Target: Aurora kinase A (Homo sapiens)
Sequence (whole entry): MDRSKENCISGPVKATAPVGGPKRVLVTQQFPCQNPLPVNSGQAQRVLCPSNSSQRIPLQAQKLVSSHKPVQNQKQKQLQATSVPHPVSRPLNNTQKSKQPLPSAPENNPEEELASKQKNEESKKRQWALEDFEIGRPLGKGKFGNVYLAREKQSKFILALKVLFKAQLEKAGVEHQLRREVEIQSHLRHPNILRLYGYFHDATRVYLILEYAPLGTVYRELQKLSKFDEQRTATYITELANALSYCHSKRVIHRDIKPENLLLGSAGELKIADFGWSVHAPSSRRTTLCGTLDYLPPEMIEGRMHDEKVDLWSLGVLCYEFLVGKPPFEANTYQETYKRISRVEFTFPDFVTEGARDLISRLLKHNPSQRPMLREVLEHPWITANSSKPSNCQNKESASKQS
Conditions: at 1 µM
Please assign Criterion not met whenever residual activity is at or above 80%, and Criterion met whenever it is below.

[in] Does the reported residual activity of the following compound sit strictly below 80%? `CN(C)CCCn1cc(C2=C(c3c[nH]c4ccccc34)C(=O)NC2=O)c2ccccc21`
[out] Criterion not met

[in] Does the reported residual activity of the following compound sit strictly below 80%? `COc1cc2ncnc(Nc3ccc(O)c(Br)c3)c2cc1OC`
[out] Criterion met

[in] Does the reported residual activity of the following compound sit strictly below 80%? `CC#CC(=O)Nc1cc2c(Nc3ccc(F)c(Cl)c3)ncnc2cn1`
[out] Criterion not met

[in] Does the reported residual activity of the following compound sit strictly below 80%? `Nc1n[nH]c2nnc(-c3c(-c4ccccc4)nn4ccccc34)cc12`
[out] Criterion not met

[in] Does the reported residual activity of the following compound sit strictly below 80%? `Cc1ccc(S(=O)(=O)/C=C/C#N)cc1`
[out] Criterion not met

[in] Does the reported residual activity of the following compound sit strictly below 80%? `N#Cc1cnc2cnc(NCc3cccnc3)cc2c1Nc1ccc(F)c(Cl)c1`
[out] Criterion met

[in] Does the reported residual activity of the following compound sit strictly below 80%? `O=C(O)c1ccc2c3c1cccc3c(=O)n1c3ccccc3nc21`
[out] Criterion met

[in] Does the reported residual activity of the following compound sit strictly below 80%? `C[C@@H](N)[C@H]1CC[C@H](C(=O)Nc2ccncc2)CC1`
[out] Criterion not met

[in] Does the reported residual activity of the following compound sit strictly below 80%? `O=C1NC(=O)c2cc(Nc3ccc(F)cc3)c(Nc3ccc(F)cc3)cc21`
[out] Criterion not met

[in] Does the reported residual activity of the following compound sit strictly below 80%? `CC(=O)O/N=C1\C(=C2\C(=O)Nc3cc(Br)ccc32)Nc2ccccc21`
[out] Criterion met
